# Tested on: ryegrass, Italian (Italian ryegrass, Lolium multiflorum)
# ASSAY INFO: Test A preemergence
# Type: in vivo
# EXPERIMENTAL CONTEXT: Lolium multiflorum, pre-emergence, 240 h, 500 g ai/ha, preemergence; 0 to 100 scale, 0 = no effect, 100 = complete control; read-out: Plant response rating, Ryegrass, Italian
RESULT TYPE: pest or weed control at 500 g/ha (%)
Write it as a number; the unit % goes unstated.

*Q* Enter reported pest or weed control at 500 g/ha observed with ryegrass, Italian (Italian ryegrass, Lolium multiflorum) for C=CCN1C[C@H](c2ccc(OC)c(F)c2)[C@@H](C(=O)Nc2ccccc2S(C)(=O)=O)C1=O [Compound 724]
*A* 0

*Q* Enter reported pest or weed control at 500 g/ha observed with ryegrass, Italian (Italian ryegrass, Lolium multiflorum) for CN1C[C@H](c2cc(F)cc(F)c2)[C@@H](C(=O)Nc2ccccc2S(C)(=O)=O)C1=O [Compound 739]
*A* 30

*Q* Enter reported pest or weed control at 500 g/ha observed with ryegrass, Italian (Italian ryegrass, Lolium multiflorum) for CN1C[C@H](c2ccc(F)c(F)c2)[C@@H](C(=O)Nc2cccc(F)c2F)C1=O [Compound 639]
*A* 90

*Q* Enter reported pest or weed control at 500 g/ha observed with ryegrass, Italian (Italian ryegrass, Lolium multiflorum) for CN1C[C@H](c2ccc3c(c2)CCC3)[C@@H](C(=O)Nc2ccccc2F)C1=O [Compound 742]
*A* 90

*Q* Enter reported pest or weed control at 500 g/ha observed with ryegrass, Italian (Italian ryegrass, Lolium multiflorum) for CS(=O)(=O)c1ccccc1NC(=O)[C@H]1C(=O)NC[C@@H]1c1cccc2c1OC(F)(F)O2 [Compound 753]
*A* 20

----------
# Test system: Kochia (Kochia scoparia)
# ASSAY INFO: Test A postemergence
# Format: in vivo
# EXPERIMENTAL CONTEXT: Bassia scoparia, post-emergence, 240 h, Postemergence, 500 g ai/ha; visual injury, 0 to 100 scale (0 no effect, 100 complete control), approx. 10 d; read-out: Plant response rating, Kochia
Please respond with reported pest or weed control at 500 g/ha for every item in the list.
Write it as a number; the unit % goes unstated.

*Q* Enter reported pest or weed control at 500 g/ha observed with Kochia (Kochia scoparia) for `CN1C[C@H](c2ccc3c(c2)CCO3)[C@@H](C(=O)Nc2ccc(F)c(F)c2F)C1=O`
*A* 70

*Q* Enter reported pest or weed control at 500 g/ha observed with Kochia (Kochia scoparia) for `CN1C[C@H](c2cccc(C(F)(F)F)c2)[C@@H](C(=O)Nc2ccc(F)c(F)c2F)C1=O`
*A* 80

*Q* Enter reported pest or weed control at 500 g/ha observed with Kochia (Kochia scoparia) for `CSc1ccccc1NC(=O)[C@H]1C(=O)N(C)C[C@@H]1c1cccc(C(F)(F)F)c1`
*A* 70

*Q* Enter reported pest or weed control at 500 g/ha observed with Kochia (Kochia scoparia) for `COc1cc([C@H]2CN(C)C(=O)[C@@H]2C(=O)Nc2ccccc2SC)ccc1F`
*A* 50

*Q* Enter reported pest or weed control at 500 g/ha observed with Kochia (Kochia scoparia) for `COc1cc(OC)cc([C@H]2CN(C)C(=O)[C@@H]2C(=O)Nc2cccc(F)c2F)c1`
*A* 50

*Q* Enter reported pest or weed control at 500 g/ha observed with Kochia (Kochia scoparia) for `CN1C[C@H](c2cccc(C(C)(F)F)c2)[C@@H](C(=O)Nc2ccccc2F)C1=O`
*A* 30
